This collection of values is drawn from paper PMC10965220.

Reported pIC50 values for the following molecules.
Target chain: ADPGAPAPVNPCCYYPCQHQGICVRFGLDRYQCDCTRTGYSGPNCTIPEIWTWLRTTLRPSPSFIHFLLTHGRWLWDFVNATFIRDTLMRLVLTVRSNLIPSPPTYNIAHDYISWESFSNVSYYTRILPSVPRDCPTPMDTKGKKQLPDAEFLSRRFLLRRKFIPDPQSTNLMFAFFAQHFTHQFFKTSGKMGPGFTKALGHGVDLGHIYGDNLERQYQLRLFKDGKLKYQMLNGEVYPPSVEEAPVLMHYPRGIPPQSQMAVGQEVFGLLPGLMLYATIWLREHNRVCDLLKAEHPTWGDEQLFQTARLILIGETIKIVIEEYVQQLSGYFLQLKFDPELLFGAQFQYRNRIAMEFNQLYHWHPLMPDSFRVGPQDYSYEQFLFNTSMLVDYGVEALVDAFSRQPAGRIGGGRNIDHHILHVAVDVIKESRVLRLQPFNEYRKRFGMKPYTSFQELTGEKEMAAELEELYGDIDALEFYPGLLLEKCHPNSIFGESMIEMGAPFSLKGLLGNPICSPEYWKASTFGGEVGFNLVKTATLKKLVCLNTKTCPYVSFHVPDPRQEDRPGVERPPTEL
Just so you know, pIC50 here is -log10 of the concentration in molar units; reply with that number alone.

O=C(CSc1nnc(-c2ccc(NC(=O)c3cccnc3)cc2)o1)Nc1cccc(Br)c1    5.00
CC(=O)c1ccc(NC(=O)CSc2nnc(-c3ccc(NC(=O)c4cccnc4)cc3)o2)cc1    4.94
Cc1ccc(NC(=O)CSc2nnc(-c3ccc(NC(=O)c4cccnc4)cc3)n2N)cc1 [Compound 11c]    4.87

Entry under review: Nn1c(SCC(=O)Nc2ccc(F)cc2)nnc1-c1ccc(NC(=O)c2cccnc2)cc1 [Compound 11e] . Reported pIC50? 5.00
